Tested on: HOP-62 complex spheroids with HUVEC/MSC, viability
protocol summary: Anticancer human tumor HOP-62 cell line growth inhibition [RAS];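 further: spheroids exposed to agents for seven days before readout; 100% = DMSO vehicle control viability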
details: second compound 0.0949 µM; first compound 0.03 µM; active compounds read low
value kind: viability, T/C (%)
Express it in %; write the number only.

// query Name the recorded viability, T/C of the compound listed here: CCc1c2c(nc3ccc(O)cc13)-c1cc3c(c(=O)n1C2)COC(=O)[C@]3(O)CC + CCn1c(-c2cccnc2C(C)OC)c2c3cc(ccc31)N1CCOC(CC(NC(=O)C(C(C)C)N(C)C(=O)C3(F)CCN(C(=O)C#CC(C)(C)N(C)C)CC3)C(=O)N3CCCC(N3)C(=O)OCC(C)(C)C2)C1
// result 6.01

// query State, in one line, measured viability, T/C of CC1(C)CCC(Nc2ncc(C(F)(F)F)c(-c3c[nH]c4c(P(C)(C)=O)c(C#N)ccc34)n2)CN1 (centres undefined) + CCn1c(-c2cccnc2C(C)OC)c2c3cc(ccc31)N1CCOC(CC(NC(=O)C(C(C)C)N(C)C(=O)C3(F)CCN(C(=O)C#CC(C)(C)N(C)C)CC3)C(=O)N3CCCC(N3)C(=O)OCC(C)(C)C2)C1
// result 55.8

// query Fill in viability, T/C for record CC1(C)CCC(Nc2ncc(C(F)(F)F)c(-c3c[nH]c4c(P(C)(C)=O)c(C#N)ccc34)n2)CN1 (centres undefined) + CCn1c(-c2cc(N3CCN(C)CC3)cnc2C(C)OC)c2c3cc(ccc31)-c1csc(n1)CC(NC(=O)C1CC1C)C(=O)N1CCCC(N1)C(=O)OCC(C)(C)C2
// result 66.1

// query Please give measured viability, T/C of the following entry: CCc1c2c(nc3ccc(O)cc13)-c1cc3c(c(=O)n1C2)COC(=O)[C@]3(O)CC + CCn1c(-c2cc(N3CCN(C)CC3)cnc2C(C)OC)c2c3cc(ccc31)-c1csc(n1)CC(NC(=O)C1CC1C)C(=O)N1CCCC(N1)C(=O)OCC(C)(C)C2
// result 14.7
